B1: VH:VL chains; a variant is named by its letters at X, in order (parent)
chain 1: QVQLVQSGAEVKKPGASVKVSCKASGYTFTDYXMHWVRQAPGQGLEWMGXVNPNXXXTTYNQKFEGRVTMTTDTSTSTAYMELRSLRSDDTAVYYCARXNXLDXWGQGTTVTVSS
chain 2: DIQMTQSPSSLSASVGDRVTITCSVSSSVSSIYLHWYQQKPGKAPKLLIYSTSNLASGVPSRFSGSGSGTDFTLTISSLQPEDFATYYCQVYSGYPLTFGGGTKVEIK

- Variants of: B1
- TEST_DESCRIPTION: yeast display scFab, FACS + sequencing
REPORTED_PROPERTY: non-specific binding call

MUTATION_DESCRIPTOR	non-specific binding call
VKGRGSWS	binds
DRAGDDGD	no binding
VKGRGYGA	binds
SRGGGVGY	binds
FKGRGVWV	binds

Please give non-specific binding call, item by item, for the list that follows.
1. YRRRGAGF
2. AARADSWV
3. YRAAGSGA
4. YRRGGSWV
5. YRAKGAGV
6. DAGTGSWD
7. YRARGAWS

Reply:
1: binds; 2: no binding; 3: binds; 4: binds; 5: binds; 6: no binding; 7: binds

Please give non-specific binding call, item by item, for the list that follows.
1. YRARGFGA
2. YRRRGAAS
3. VEKEGDWY
4. SAEKDDGS

Reply:
["binds", "binds", "no binding", "no binding"]

Please give non-specific binding call, item by item, for the list that follows.
1. DGGTSYSV
2. FRGKGAAS

Reply:
no binding
binds
